- Tested on: VchCAST RNA-guided transposition machinery (E. coli BL21(DE3) host, lacZ target)
- method.summary: relative integration efficiency (T-LR orientation) vs wild-type transposon end (log2 (normalized fold change)); transposon end mutated: left end; higher = more efficient transposition
test.readout: relative integration efficiency (log2)
Form rule: numeric answer, no unit written next to it.

sequence.code	relative integration efficiency (log2)
AATGTTGTTGATGCAACCATAAAGTGATATTTAATAATTATTTATAATCAGCAACTTAACCACAAAACAACCATATATTGATATCTCACAAAACAACCATAAGTTGATATTGGGTGTCCGATCTGATTTCAGCAAAACTACTGCAGTAAGAA	-0.651
AATGTTGTTGATGCAACCATAAAGTGATATTTACAACCATATATTGATATCTCACAAAACAACCATAAGTTGATATTTTATAATTATTTATAATCAGCAACTTAACCACAAAATGTGAATCGAGTATTTCAGCAAAACTACTGCAGTAAGAA	0.848
AATGTTGTTGATGCAACCATAAAGTGATATTTACACGAAGTGGCAACTGCCGTGCTGGCGTGCGATGCAACCATATATTGATATCTCACAAAACAACCATAAGTTGATATTTTTGTGAATCGAGTATTTCAGCAAAACTACTGCAGTAAGAA	0.496

Incoming: Field request: relative integration efficiency (log2) | item: AATGTTGTTGATGCAACCATAAAGTGATATTTAATCCGGCGGGCGCCGACTACCAGGCCAACACCCCACCAACGCGCGGTCGCGAGACACCCCACCAACGCCTGGTCGCGGGGGTGTCCGATCTGATTTCAGCAAAACTACTGCAGTAAGAA
Outgoing: -4.25

----------
- Tested on: VchCAST RNA-guided transposition machinery (E. coli BL21(DE3) host, lacZ target)
- method.summary: relative integration efficiency (T-RL orientation) vs wild-type transposon end (log2 (normalized fold change)); transposon end mutated: right end (5 bp flank + 75 bp right end); higher = more efficient transposition
relative integration efficiency (log2) by entry:

Incoming: relative integration efficiency (log2) of ACATTTGTTTATACAACCATAAAATGATAATTACACCCATAAATTCATTATTATCACACCCAATTTAACTATAACGCTCTGATCATAGTCAGACCAACATTGCTACGACCCGTATTCGCACCGACAC on VchCAST RNA-guided transposition machinery (E. coli BL21(DE3) host, lacZ target)?
Outgoing: -3.21

----------
relative integration efficiency (log2) by entry:
- Test system: VchCAST RNA-guided transposition machinery (E. coli BL21(DE3) host, lacZ target)
- method.summary: relative integration efficiency (T-RL orientation) vs wild-type transposon end (log2 (normalized fold change)); transposon end mutated: right end (5 bp flank + 75 bp right end); higher = more efficient transposition
Form rule: numeric answer, no unit written next to it.

In the examples that follow, each entry is paired with its recorded relative integration efficiency (log2).
sequence.code	reported.measurement
ACATTTGTTGATACAACCATAAAATGATAATTACACCCATAAATTGATAATTATCACACAAATAAATTGATATTGCCTCTGATCATAGTCAGACCAACATTGCTACGACCCGTATTCGCACCGACAC	-1.11
ACATTTGTTGATACAACCATAAAGTGATATTTACACCCATAAATTGATATTGCTCACACCCATAAATTGATATTGCCTCTGATCATAGTCAGACCAACATTGCTACGACCCGTATTCGCACCGACAC	-0.333
ACATTTGTTGATACACCCATAAATTGATAATTACAACCATAAAGTGATATTTATCACAACCATATATTGATATCTCCTCTGATCATAGTCAGACCAACATTGCTACGACCCGTATTCGCACCGACAC	-0.0337
ACATTTGTTGATACAACCATAAAATGATAATTACTCTGATCATAGTCAGACCAACATTGCTACGACCCGTATTCACCCATAAATTGATAATTATCACACCCATAAATTGATATTGCCGCACCGACAC	-3.12

Now take the following sequence into account.
Incoming: relative integration efficiency (log2) of ACATTTGTTGATACAACCCTAAAATGATAATTACACCCATAAATTCATAATTATCACCCCCAATTTAACTATAACGCTCTGATCATAGTCAGACCAACATTGCTACGACCCGTATTCGCACCGACAC on VchCAST RNA-guided transposition machinery (E. coli BL21(DE3) host, lacZ target)?
Outgoing: -4.15

----------
relative integration efficiency (log2) by entry:
- Test system: VchCAST RNA-guided transposition machinery (E. coli BL21(DE3) host, lacZ target)
- method.summary: relative integration efficiency (T-LR orientation) vs wild-type transposon end (log2 (normalized fold change)); transposon end mutated: right end (5 bp flank + 75 bp right end); higher = more efficient transposition
Form rule: numeric answer, no unit written next to it.

sequence.code	relative integration efficiency (log2)
ACATTTGTTGATACAACACGCAAATGATAATTACACCCATAAATTGATAATTATCACACCCATAAATTGATATTGCCTCTGATCATAGTCAGACCAACATTGCTACGACCCGTATTCGCACCGACAC	-4.89

Incoming: Field request: relative integration efficiency (log2) | item: ACATTTGTTGATACAACCATAAAATGATAATTACACCCATCCCGGTCGCCGGCGACACAAACGCCCGGTCGCGGTAAGAGGATCATAGTCAGACCAACATTGCTACGACCCGTATTCGCACCGACAC
Outgoing: 0.414

Incoming: Field request: relative integration efficiency (log2) | item: ACATTTGTTGATAGAACCATTTAATGATAATAACACCCATAAAATGATAATTATCACACCCAATTTAACTATAACGCTCTGATCATAGTCAGACCAACATTGCTACGACCCGTATTCGCACCGACAC
Outgoing: 0.598

----------
- Test system: VchCAST RNA-guided transposition machinery (E. coli BL21(DE3) host, lacZ target)
- method.summary: relative integration efficiency (T-LR orientation) vs wild-type transposon end (log2 (normalized fold change)); transposon end mutated: right end (5 bp flank + 75 bp right end); higher = more efficient transposition
relative integration efficiency (log2) vs -0.5: at or above is met, below is not met.

Here's what some known entries look like.
sequence.code	assigned.category
ACATTTGTTGATACAACCATAAAATGATAATTACTCTGATCATAGTCAGACCAACATTGCTACGACCCGTATTCGCACCGACACAACGACTATATTTATGGGTCACCCATAAATTGATAATTATCAG	met
ACATTTGTTGATACAACCATAAAATGATCCGGCACAAACGCCCGGTCGCCGGCGACACAAACGCCCGGTCGCGGTAAGAGGATCATAGTCAGACCAACATTGCTACGACCCGTATTCGCACCGACAC	met
ACATTTGTTGATACAACCATTAAATGGTAATTCCACCCAAAAATTGATAATTATCACACCCAATTTAACTATAACGCTCTGATCATAGTCAGACCAACATTGCTACGACCCGTATTCGCACCGACAC	met
ACATTTGTCGATACAACCCTAAAATGATAATTACACCCATAAATTCATAATTATCACCCCCAATTTAACTATAACGCTCTGATCATAGTCAGACCAACATTGCTACGACCCGTATTCGCACCGACAC	not met
ACATTTGTTGATACAACCATATATTGATATCTCCAACCATAAAGTGATATTTATCACACCCATAAATTGATATTGCCTCTGATCATAGTCAGACCAACATTGCTACGACCCGTATTCGCACCGACAC	met
ACATTTGTTGATACAACCATAAAATGATAATTACAACCATATATTGATATCTCTCACAACCATAAAATGATAATTACTCTGATCATAGTCAGACCAACATTGCTACGACCCGTATTCGCACCGACAC	met
ACATTGGTTGATACAACCATAAAATGATAATTACACCCATAAATGGATCATTATCACACCCAATTTAACTATAACGCTCTGATCATAGTCAGACCAACATTGCTACGACCCGTATTCGCACCGACAC	not met
ACATTTGTTGATACAACCATCAAATGATAATTACACCCATACATTGATAATTATCACACCCAATTTAACTATAACGCTCTGATCATAGTCAGACCAACATTGCTACGACCCGTATTCGCACCGACAC	met

Incoming: Please indicate if the recorded relative integration efficiency (log2) for ACATTTGTTGATACAACCATAAAATGATAATTACCACCCATAAATTGATAATTATCACACCCATTTAACTATAACGCTCTGATCATAGTCAGACCAACATTGCTACGACCCGTATTCGCACCGACAC meets or exceeds -0.5.
Outgoing: met

Incoming: Please indicate if the recorded relative integration efficiency (log2) for ACATTTGTTGATACAACCATATATTGATATCTCCAACCATATATTGATATCTCTCACAACCATATATTGATATCTCCTCTGATCATAGTCAGACCAACATTGCTACGACCCGTATTCGCACCGACAC meets or exceeds -0.5.
Outgoing: met

Incoming: Please indicate if the recorded relative integration efficiency (log2) for ACATTTGTTGATACAACCATAAAATGATAATTACACCCATAAATTGATAATTATCACACCCATAAATTGATATTGCCTCTGATCATAGTCACAACCATAAAATGATAATTAGACCAAGCACCGACAC meets or exceeds -0.5.
Outgoing: met

Incoming: Please indicate if the recorded relative integration efficiency (log2) for ACATTTGTTGATACCACCATAAAATGGTAATTACACCCCTACATTGATAATTATCACACCCAATTTAACTATAACGCTCTGATCATAGTCAGACCAACATTGCTACGACCCGTATTCGCACCGACAC meets or exceeds -0.5.
Outgoing: not met

Incoming: Please indicate if the recorded relative integration efficiency (log2) for ACATTTGTTGATACAACCATAAAATGATAATTACTCTGACACCCATAAATTGATAATTATCACACCCATAAATTGATATTGCTCATAGTCAGACCAACATTGCTACGACCCGTATTCGCACCGACAC meets or exceeds -0.5.
Outgoing: met

All values here come from the supplement of paper PMC10201428.
